# Test system: CCRIS mutagenicity, Ames/micronucleus/aberration tests
# PROTOCOL DESCRIPTION: CCRIS mutagenicity studies
# TEST PARAMETERS: Test System: AMES SALMONELLA TYPHIMURIUM; Strain/Indicator: TA1537; Metabolic Activation: NONE; Method: PREINCUBATION
Active and inactive are the calls of the source. No rule for the calls is given here.
Return exactly one item of YES = active, NO = inactive

Please state the recorded outcome for this compound: "CCOC(C)=O"
NO

Please state the recorded outcome for this compound: "CCCCCCCCCCCOC(=O)c1ccccc1C(=O)OCCCCCCCCCCC"
NO

Please state the recorded outcome for this compound: "CCCCOCCOC(=O)COc1ccc(Cl)cc1Cl"
NO

Please state the recorded outcome for this compound: COP(=O)(OC)C(O)C(Cl)(Cl)Cl (configuration not stated)
NO

Please state the recorded outcome for this compound: "CCN(CC)c1ccc(N=O)c(O)c1"
NO

Please state the recorded outcome for this compound: "COC(C)=O"
NO

###

# Test system: CCRIS mutagenicity, Ames/micronucleus/aberration tests
# PROTOCOL DESCRIPTION: CCRIS mutagenicity studies
# TEST PARAMETERS: Test System: AMES SALMONELLA TYPHIMURIUM; Strain/Indicator: TA100; Metabolic Activation: RAT, LIVER, S-9, AROCLOR 1254; Method: STANDARD PLATE
# Description: The CCRIS database contains chemical records with carcinogenicity, mutagenicity, tumor promotion, and tumor inhibition test results. It was developed by the National Cancer Institute (NCI). Data are derived from studies cited in primary journals, current awareness tools, NCI reports, and other sources. Test results have been reviewed by experts in carcinogenesis and mutagenesis. CCRIS provides historical information from the years 1985 - 2011. It is no longer updated. […]
Active and inactive are the calls of the source. No rule for the calls is given here.
Return exactly one item of T for active, F for inactive

1. Cc1cccc(NS(=O)(=O)c2cccc3cccnc23)c1; F

Please state the recorded outcome for this compound: "Cc1ccc2c3c1ccc1cccc(c13)C2"
T

Please state the recorded outcome for this compound: C1OC1C1CO1 (stereo unspecified)
T

Please state the recorded outcome for this compound: O=C(c1ccccc1)C(O)c1ccccc1 (stereo unspecified)
F

Please state the recorded outcome for this compound: "CCCCNC(=O)n1c(NC(=O)OC)nc2ccccc21"
F

Please state the recorded outcome for this compound: "O=C1c2ccccc2-c2c1ccc1ccccc21"
T

###

# System: CCRIS mutagenicity, Ames/micronucleus/aberration tests
# PROTOCOL DESCRIPTION: CCRIS mutagenicity studies
# TEST PARAMETERS: Test System: AMES SALMONELLA TYPHIMURIUM; Strain/Indicator: TA1537; Metabolic Activation: NONE; Method: STANDARD PLATE
# Text: The CCRIS database contains chemical records with carcinogenicity, mutagenicity, tumor promotion, and tumor inhibition test results. It was developed by the National Cancer Institute (NCI). Data are derived from studies cited in primary journals, current awareness tools, NCI reports, and other sources. Test results have been reviewed by experts in carcinogenesis and mutagenesis. CCRIS provides historical information from the years 1985 - 2011. It is no longer updated. […]
The source made the active and inactive calls. No rule for the calls is given here.
ENDPOINT LABEL: mutagenic call

Known mutagenic call results, listed for orientation:
1) CCC/C=N/O; inactive; negative
2) c1cscn1; inactive; negative
3) CCC(=O)Nc1snc2ccc(C)cc12; inactive; negative
4) C[C@]12CC[C@@H]3c4ccc(O)cc4CC[C@H]3[C@@]13CC[C@]2(O)[C@H](O)C3; inactive; negative
5) O=c1[nH]c(=O)n([C@H]2C[C@H](O)[C@@H](CO)O2)cc1CCCl; inactive; negative

Each of the following entries comes with a recorded value; kindly state mutagenic call for each.
1. C[C@]12CCC(=O)C=C1[C@@H]1C[C@@H]1[C@H]1[C@@H]3[C@@H]4C[C@@H]4[C@@]4(CCC(=O)O4)[C@@]3(C)CC[C@@H]12
2. CC(=O)C(Cl)(Cl)Cl
3. C[C@]12C/C(=C/O)C(=O)C[C@@H]1CC[C@@H]1[C@@H]2CC[C@@]2(C)[C@H]1CC[C@]2(C)O
4. CC(C)C[C@@H]1NC(=O)CNC1=O
5. O=[N+]([O-])c1c(-c2ccc(Cl)cc2)nc2sccn12
6. CN(C)CCCNc1c2ccccc2nc2ccccc12

inactive; negative
inactive; negative
inactive; negative
inactive; negative
active; positive
active; positive

Each of the following entries comes with a recorded value; kindly state mutagenic call for each.
1. ClCC(CCl)(CCl)CCl
2. O=[N+]([O-])C1=Cc2ccc3ccc4cccc5cc1c2c3c45
3. c1ccc2c(c1)-c1ccc3ccccc3c1C1OC21 (configuration not stated)
4. CN(C)CCCNc1c2ccccc2nc2cccc([N+](=O)[O-])c12
5. CN1C[C@H](C(=O)N[C@]2(C)O[C@@]3(O)[C@@H]4CCCN4C(=O)[C@H](Cc4ccccc4)N3C2=O)C=C2c3cccc4[nH]cc(c34)C[C@H]21

inactive; negative
active; positive
active; positive
active; positive
inactive; negative
